Data origin, for the record: ChEMBL document CHEMBL3351348

test_protocol: Inhibition of HIV Protease using Abz-Thr-Ile-Nle-Phe(NO2)-Gln-Arg as fluorogenic substrate by fluorimetry
Set-up: species or system Human immunodeficiency virus
assay_conditions: read-out: IC50
reported_endpoint: IC50 (µM)

a. CC(C)(C)NC(=O)[C@@H]1C[C@@H]2CCCC[C@@H]2CN1C[C@@H](O)COc1ccc2[nH]ccc2c1
b. CC(C)CN(C[C@@H](O)COC(=O)Nc1ccc2[nH]ccc2c1)S(=O)(=O)c1ccc([N+](=O)[O-])cc1
Asked: In terms of reported IC50, does a or b have the smaller number? In your reply, give the label of the chosen option.
Given back: b
(b: 2 µM, a: 14 µM)

----------
test_protocol: Inhibition of HIV Protease using Abz-Thr-Ile-Nle-Phe(NO2)-Gln-Arg as fluorogenic substrate by fluorimetry
Design: species or system Human immunodeficiency virus
assay_conditions: read-out: IC50
pIC50: −log10 of the molar value.
reported_endpoint: pIC50

smiles_record: COc1ccc(S(=O)(=O)N(CC(C)C)C[C@@H](O)CNc2cccc3[nH]ccc23)cc1OC
reported_endpoint: pIC50
reported: 3.47
//
smiles_record: CC(C)CN(C[C@@H](O)COc1cccc2[nH]ccc12)S(=O)(=O)c1ccc([N+](=O)[O-])cc1
reported_endpoint: pIC50
reported: 3.46
//
smiles_record: COc1ccc(S(=O)(=O)N(CC(C)C)C[C@@H](O)COc2ccc3cc[nH]c3c2)cc1OC
reported_endpoint: pIC50
reported: 3.46
//
smiles_record: COc1ccc(S(=O)(=O)N(CC(C)C)C[C@@H](O)COc2cccc3[nH]ccc23)cc1OC
reported_endpoint: pIC50
reported: 3.47

a. CC(C)(C)NC(=O)[C@@H]1C[C@@H]2CCCC[C@@H]2CN1C[C@@H](O)COc1cccc2[nH]ccc12
b. CC(C)(C)NC(=O)[C@@H]1C[C@@H]2CCCC[C@@H]2CN1C[C@@H](O)COC(=O)Nc1cccc2[nH]ccc12
c. CC(C)CN(C[C@@H](O)CNc1cccc2[nH]ccc12)S(=O)(=O)c1ccc([N+](=O)[O-])cc1
d. CC(C)(C)NC(=O)[C@@H]1C[C@@H]2CCCC[C@@H]2CN1C[C@@H](O)CNc1ccc2[nH]ccc2c1
Asked: hey, can you rank those compounds up there by pIC50? biggest number first please Answer format: the labels, in the requested order.
Given back: a, b, d, c

----------
test_protocol: Inhibition of HIV Protease using Abz-Thr-Ile-Nle-Phe(NO2)-Gln-Arg as fluorogenic substrate by fluorimetry
Set-up: species or system Human immunodeficiency virus
assay_conditions: read-out: IC50
reported_endpoint: IC50 (µM)

Example cases with answers are listed next.
smiles_record: CC(C)CN(C[C@@H](O)COc1ccc2[nH]ccc2c1)S(=O)(=O)c1ccc(N)cc1
IC50 [µM]: 12
//
smiles_record: CC(C)CN(C[C@@H](O)COC(=O)Nc1cccc2[nH]ccc12)S(=O)(=O)c1ccc([N+](=O)[O-])cc1
IC50 [µM]: 72
//
smiles_record: CC(C)(C)NC(=O)[C@@H]1C[C@@H]2CCCC[C@@H]2CN1C[C@@H](O)CNc1cccc2[nH]ccc12
IC50 [µM]: 157
//
smiles_record: CC(C)(C)NC(=O)[C@@H]1C[C@@H]2CCCC[C@@H]2CN1C[C@@H](O)COC(=O)Nc1ccc2[nH]ccc2c1
IC50 [µM]: 606

P. CC(C)CN(C[C@@H](O)COc1ccc2[nH]ccc2c1)S(=O)(=O)c1ccc([N+](=O)[O-])cc1
Q. COc1ccc(S(=O)(=O)N(CC(C)C)C[C@@H](O)COc2ccc3[nH]ccc3c2)cc1OC
Asked: In terms of reported IC50, does P or Q have the smaller number? In your reply, give the label of the chosen option.
Given back: Q
